Answer each item with its documented Percent Effect.
Test system: Trypanosoma cruzi
Assay: Trypanosoma cruzi phosphomannomutase and mannose-1-phosphate guanylyltransferase assay
Assay type: functional
Parameters: scale not given: direction of the effect not stated beside the values
Conditions: 10 µM
Quick reminder: number only, in %, skip the unit.

Entry CC(C)c1nccc([C@H]2C[C@@H]3CCN(Cc4ccoc4)C[C@H]3O2)n1 , Percent Effect reported as 6.13

Entry CN(C)[C@@H]1CCN(C(=O)Cc2ccc(F)cc2)[C@H]1Cc1cnn(C)c1 , Percent Effect reported as -4.72

Entry O=C(NC[C@]12COC[C@H]1CN(Cc1cccnc1)C2)c1ccno1 , Percent Effect reported as -4.13

Entry O=C(Cc1ccccc1)N1CCN(Cc2noc(C3CC3)n2)CC1 , Percent Effect reported as -4.62

Entry c1ccc(CN2CCO[C@H]3[C@H](OCCN4CCCC4)CC[C@@H]32)nc1 , Percent Effect reported as -2.7

Entry Cc1csc(CN2CCC[C@]3(C[C@H](Oc4ccccn4)CO3)C2)n1 , Percent Effect reported as 3.57

Entry Cc1cccc(C(=O)N2C[C@@H]3OCCN(C(C)C)[C@@H]3C2)n1 , Percent Effect reported as 1.74

Entry Cc1cccc(CN2CC[C@H]3[C@H]2CCN3Cc2cnn(C)c2)n1 , Percent Effect reported as 0.75

Entry O=C(COc1ccccc1)N1C[C@@H](O)[C@H](N2CCCC2)C1 , Percent Effect reported as 3.36

Entry O=C(N[C@H]1CN[C@H]2CCCO[C@H]21)c1ccno1 , Percent Effect reported as 4.76

Entry CN1C(=O)C2(CCN(CC3CC3)CC2)c2ccccc21 , Percent Effect reported as -6.16

* * *

Biological target: Shiga toxin 2 (Escherichia coli O157:H7) (UniProt P09385+P09386)
Experiment: E. coli 0.157:H7 Shiga Toxin SOP - stx2 screening assay
Format: functional
Parameters: scale not given: direction of the effect not stated beside the values
Conditions: 30 µM
readout-kind: Percent Effect (%)
Quick reminder: number only, in %, skip the unit.

Entry Cc1ccc(CN2CCc3ncnc(C4CCOC4)c3CC2)s1 (stereo not given) , Percent Effect reported as -15.3

Entry CN(Cc1nccn1CC(F)(F)F)C(=O)c1ccc(F)c(F)c1 , Percent Effect reported as 0.723

Entry CCN(CC)C(CNS(=O)(=O)c1ccc(C(=O)NC)cc1)c1ccco1 (stereo not given) , Percent Effect reported as -17.4

Entry Cc1cnc(C(=O)N2CCc3ncnc(C)c3CC2)cn1 , Percent Effect reported as -27.4

Entry O=C(O)C1(Cc2ccccc2Cl)CCN(c2ncccc2F)CC1 , Percent Effect reported as -10.7

Entry CC(NCc1c(C(C)C)nn(C)c1N1CCOCC1)C(N)=O (stereo not given) , Percent Effect reported as -49.6

Entry COc1cccc(CCNCc2c(C)nn(C)c2N(C)C)c1 , Percent Effect reported as 28.4

Entry Cc1ccc(C(=O)N(C)Cc2cscn2)c(=O)[nH]1 , Percent Effect reported as 8.36

Entry c1ccc(C[C@H]2CN(Cc3nccs3)CC[C@H]2OCC2CC2)cc1 , Percent Effect reported as 16

Entry Cc1noc(C)c1C(=O)NCC(O)c1ccc(F)cc1F (stereo not given) , Percent Effect reported as 20.4

Entry Cc1nc(N2CCOCC2)nc2c1CCN(C(=O)NC1CCCC1)CC2 , Percent Effect reported as -52.5

Entry Cc1cccc(CN2CCN(Cc3ccccc3)CC(O)C2)n1 (stereo not given) , Percent Effect reported as 13.4

Entry O=C(N[C@H]1CN[C@H]2CCCO[C@H]21)c1ccno1 , Percent Effect reported as 2.67

Entry c1cnn(CC2CCCCN2Cc2cn3ccsc3n2)c1 (stereo not given) , Percent Effect reported as -12.1

Entry COCC1CN(Cc2cc(C)on2)Cc2cn(C)nc21 (stereo not given) , Percent Effect reported as -2.41

Entry Cc1nc2ccccc2nc1CN1CCCC1c1c(C)nn(C)c1C (stereo not given) , Percent Effect reported as -18.4

Entry O=C(NCCN1CCCc2ccccc21)c1scnc1Cl , Percent Effect reported as 0.202

Entry Cn1nc(C(=O)N2CCCCC2c2nc3cc(F)ccc3[nH]2)ccc1=O (stereo not given) , Percent Effect reported as -1.06

Entry COc1cccc(CNC(C)Cn2cccn2)c1OC (stereo not given) , Percent Effect reported as 0.638

Entry COc1ncc(NC(=O)Nc2cc(C)ccc2OC)cn1 , Percent Effect reported as -28.6

Entry Cn1cccc1C(=O)N1CCc2ncnc(N3CCCC3)c2CC1 , Percent Effect reported as -8.7

Entry CC(C)c1noc(CN(Cc2cccs2)C2CC2)n1 , Percent Effect reported as -48.4

Entry C[C@@H]1CN(C(=O)c2ccc(C#N)nc2)C[C@@]1(O)C1CC1 , Percent Effect reported as -1.27

Entry Cc1[nH]nc2ncc(C(=O)N3CCN(CC(C)C)CC3)cc12 , Percent Effect reported as 33.6

Entry CCCc1n[nH]c(C2CN(CCn3cccn3)CCO2)n1 (stereo not given) , Percent Effect reported as 6.67
